STUDY SYSTEM: hPMAT (Homo sapiens, UniProt Q7RTT9)
Construct: expressed in transfected cells
Sequence (Q7RTT9 1-530): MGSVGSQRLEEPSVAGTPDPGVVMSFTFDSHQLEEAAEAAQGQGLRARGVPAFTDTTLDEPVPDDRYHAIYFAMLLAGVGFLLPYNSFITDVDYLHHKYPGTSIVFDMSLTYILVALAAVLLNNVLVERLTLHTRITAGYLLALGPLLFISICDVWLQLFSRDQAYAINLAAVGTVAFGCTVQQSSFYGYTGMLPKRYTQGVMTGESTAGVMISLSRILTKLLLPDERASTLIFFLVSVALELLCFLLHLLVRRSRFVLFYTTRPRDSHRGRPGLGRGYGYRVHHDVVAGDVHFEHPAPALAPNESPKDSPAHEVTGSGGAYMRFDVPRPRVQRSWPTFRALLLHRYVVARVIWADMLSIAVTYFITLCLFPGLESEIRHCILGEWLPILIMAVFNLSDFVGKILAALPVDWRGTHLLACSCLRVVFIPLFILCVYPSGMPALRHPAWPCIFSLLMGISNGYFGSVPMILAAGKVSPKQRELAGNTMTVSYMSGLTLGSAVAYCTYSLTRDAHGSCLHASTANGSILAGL
PROTOCOL NOTES: [3H]MPP+ uptake inhibition assay, HEK293 cells stably expressing hPMAT
Format: cell-based
Hi there, I'd appreciate the recorded log10 IC50 for every entry that follows.
# log10 transformed; quantity=IC50; unit=µM

Please review the following examples before continuing.
COc1cccc(C2(O)CCCCC2CN(C)C)c1 (stereo not drawn) ... 1.87
CCC1(c2ccccc2)C(=O)NC(=O)NC1=O ... 3.01

Would you mind giving log10 IC50 for every compound in the list below?
1. CN(C)CCc1c[nH]c2cccc(O)c12
2. C[C@H](N)Cc1ccccc1
3. CNC(C)Cc1ccc2c(c1)OCO2 (stereo not drawn)
4. CNC1(c2ccccc2Cl)CCCCC1=O (stereo not drawn)

Marked response:
[2.84, 1.86, 0.89, 2.13]

----------
STUDY SYSTEM: hPMAT (Homo sapiens)
Construct: expressed in transfected cells
PROTOCOL NOTES: [3H]MPP+ uptake inhibition assay, HEK293 cells stably expressing hPMAT
Type: cell-based
ASSAY SETUP: HEK293 stably expressing hPMAT; 0.05 μM [3H]MPP+; 10 min pre-incubation, 10 min uptake; brackets in Table S1 = 95%-CI; n.s. = non-significant; read-out: IC50 hPMAT (inhibitory potency, [3H]MPP+ uptake)
READOUT LABEL: pIC50
Answers are plain numbers, as −log10 of the molar value.

Please review the following examples before continuing.
CC(NC(C)(C)C)C(=O)c1cccc(Cl)c1 (stereo not shown) [Bupropion, bupropion] ... 4.01
CCN1/C(=C/c2ccc3ccccc3[n+]2CC)C=Cc2ccccc21 [Decynium-22] ... 6.46
CN(C)CCC[C@]1(c2ccc(F)cc2)OCc2cc(C#N)ccc21 [R-Citalopram, R-citalopram] ... 4.23

Now look at this entry.
Exam item: Would you mind telling me what pIC50 value was observed for CN(C)CCC[C@@]1(c2ccc(F)cc2)OCc2cc(C#N)ccc21 [S-Citalopram, S-citalopram] ?
Marked response: 3.80

----------
STUDY SYSTEM: hPMAT (Homo sapiens, UniProt Q7RTT9)
Construct: expressed in transfected cells
PROTOCOL NOTES: [3H]MPP+ uptake inhibition assay, HEK293 cells stably expressing hPMAT
Assay type: cell-based
ASSAY SETUP: HEK293 stably expressing hPMAT; 0.05 μM [3H]MPP+; 10 min pre-incubation, 10 min uptake; brackets in Table S1 = 95%-CI; n.s. = non-significant
READOUT LABEL: IC50 hPMAT (inhibitory potency, [3H]MPP+ uptake)

COC(=O)C(c1ccccc1)C1CCCCN1 (stereo not shown) [Methylphenidate, methylphenidate] ... n.s.
CCC[C@H](C(=O)c1ccccc1)N1CCCC1 ... n.s.
CCC[C@@H](C(=O)c1ccccc1)N1CCCC1 ... n.s
CNC1(c2ccccc2F)CCCCC1=O (stereo not shown) ... n.s.
